# Tested on: OCI-LY10
# assay-overview: CTG Cell Viability Assay - OCI-LY10
# Type: cell-based, human
# test-parameters: Homo sapiens, OCI-Ly10, 96 h, OCI-LY10, 4 days; read-out: CTG Cell Viability Assay - OCI-LY10: Average external-IC50
pIC50: −log10 of the molar value.
Examples of compounds with documented pIC50 follow.

Completed entries (count: 3):
# compound, pIC50
data = [
    ("CC[C@@H]1CC(=O)N[C@@H]1COc1ncc(C#C[C@H]2CC[C@H](CN(C)CCCOCCCc3cccc4c3n(C)c(=O)n4C3CCC(=O)NC3=O)CC2)c2cc(C(N)=O)c(OC)cc12 (some centres unmarked) [I-219]", "< 6.00"),
    ("CN(CCN1CCO[C@@H](CNc2cccc3c2C(=O)N(C2CCC(=O)NC2=O)C3=O)C1)C[C@H]1CC[C@H](n2cc(NC(=O)c3cnn4ccc(N5C[C@H]6C[C@@H]5CO6)nc34)c(C(F)F)n2)CC1 (some centres unmarked) [I-500]", "7.00 to 7.30"),
    ("O=C1CCC(N2C(=O)c3cccc(OCCCOC4CCN(C[C@H]5CC[C@H](n6cc(NC(=O)c7cnn8ccc(N9CCOCC9)nc78)c(C(F)F)n6)CC5)CC4)c3C2=O)C(=O)N1 (some centres unmarked) [I-209]", "< 6.00"),
]

Task item: Need pIC50 of Cn1c(=O)n(C2CCC(=O)NC2=O)c2cccc(-c3ccc4nn(CCOC[C@H]5CC[C@H](n6cc(NC(=O)c7cnn8ccc(N9CCOCC9)nc78)c(C(F)F)n6)CC5)cc4c3)c21 (some centres unmarked) [I-406] , thanks.
Reply: < 6.00

Task item: Need pIC50 of CN(CCCOCCCc1ccc2c(c1)n(C)c(=O)n2C1CCC(=O)NC1=O)C[C@H]1CC[C@H](n2cc(NC(=O)c3coc(-c4ccnc(NCC5CC5)c4)n3)c(C(F)F)n2)CC1 (some centres unmarked) [I-62] , thanks.
Reply: 7.00 to 7.30

* * *

Examples of compounds with documented pIC50 follow.
# Tested on: OCI-LY10
# assay-overview: CTG Cell Viability Assay - OCI-LY10
# Assay type: cell-based, human
# test-parameters: Homo sapiens, OCI-Ly10, 96 h, OCI-LY10, 4 days; read-out: CTG Cell Viability Assay - OCI-LY10: Average external-IC50
pIC50: −log10 of the molar value.

# compound, measurement-target, pIC50
records = [
    ("Cn1c(=O)n(C2CCC(=O)NC2=O)c2cccc(CCCOCC3CCN(C[C@H]4CC[C@H](n5cc(NC(=O)c6coc(-c7ccnc(NCC8CC8)c7)n6)c(C(F)F)n5)CC4)CC3)c21 (stereo partly drawn)", "OCI-LY10", "< 6.00"),
    ("Cn1c(=O)n(C2CCC(=O)NC2=O)c2cccc(CCC(=O)N3CCC4(CC3)CN(C[C@H]3CC[C@H](n5cc(NC(=O)c6cnn7ccc(N8C[C@H]9C[C@@H]8CO9)nc67)c(C(F)F)n5)CC3)C4)c21 (stereo partly drawn)", "OCI-LY10", "< 6.00"),
]

Task item: // lookup pIC50 | system=OCI-LY10 | key= CN(C[C@H]1CC[C@H](n2cc(NC(=O)c3cnn4ccc(N5C[C@H]6C[C@@H]5CO6)nc34)c(C(F)F)n2)CC1)[C@H]1CC[C@H](Nc2cccc3c2C(=O)N(C2CCC(=O)NC2=O)C3=O)CC1 (stereo partly drawn)
Reply: 6.30 to 7.00

* * *

Examples of molecules with documented DC50 follow.
# measurement-target: IRAK4 (Homo sapiens (Human))
# Sequence (Q9NWZ3 whole entry): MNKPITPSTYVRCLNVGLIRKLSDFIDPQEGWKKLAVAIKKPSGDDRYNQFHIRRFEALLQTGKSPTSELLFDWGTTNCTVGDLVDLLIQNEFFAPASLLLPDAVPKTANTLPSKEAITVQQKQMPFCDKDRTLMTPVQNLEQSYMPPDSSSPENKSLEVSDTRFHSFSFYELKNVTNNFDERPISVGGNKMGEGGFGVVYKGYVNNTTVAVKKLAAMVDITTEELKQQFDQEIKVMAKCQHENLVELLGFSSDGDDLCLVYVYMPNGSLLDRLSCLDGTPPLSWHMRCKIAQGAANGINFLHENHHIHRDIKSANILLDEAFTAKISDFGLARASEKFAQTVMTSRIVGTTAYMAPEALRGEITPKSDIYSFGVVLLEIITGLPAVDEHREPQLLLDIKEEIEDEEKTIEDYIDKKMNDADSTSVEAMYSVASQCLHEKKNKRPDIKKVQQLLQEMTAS
# assay-overview: IRAK4 MSD degradation in OCI-LY10
# Format: cell-based
# test-parameters: OCI-LY10, 4 hrs, MSD; read-out: IRAK4 MSD degradation in OCI-LY10 at 4 hrs: Average external-Abs DC50

Completed entries (count: 4):
# molecule, DC50
data = [
    ("O=C1CCC(N2C[C@H](c3cccc(C#CCN4CCO[C@@H](CNC[C@H]5CC[C@H](n6cc(NC(=O)c7coc(-c8ccnc(NCC9CC9)c8)n7)c(C(F)F)n6)CC5)C4)c3)OC2=O)C(=O)N1 (some centres unmarked)", "0.01 to 0.1 µM"),
    ("CN(CCCOCCCNC(=O)c1ccc(CNCc2ccc(-c3ccc4c(cnn4CC4CC4)c3)cc2)cc1)C[C@H]1CC[C@H](n2cc(NC(=O)c3coc(-c4ccnc(NCC5CC5)c4)n3)c(C(F)F)n2)CC1", "> 1 µM"),
    ("CN(CC1CCN(CCC#Cc2ccc3c(c2)n(C)c(=O)n3C2CCC(=O)NC2=O)CC1)C(=O)[C@H]1CC[C@H](n2cc(NC(=O)c3coc(-c4ccnc(NCC5CC5)c4)n3)c(C(F)F)n2)CC1 (some centres unmarked)", "< 0.01 µM"),
    ("CN(Cc1ccc(-n2cc(NC(=O)c3coc(-c4ccnc(NCC5CC5)c4)n3)c(C(F)F)n2)cc1)C1CCN(Cc2cccc3c2n(C)c(=O)n3C2CCC(=O)NC2=O)CC1 (centres unmarked)", "0.01 to 0.1 µM"),
]

Task item: Need DC50 of CN(CCCOCCCc1cccc2c1n(C)c(=O)n2C1CCC(=O)NC1=O)C[C@H]1CC[C@H](n2cc(NC(=O)c3cnn4ccc(N5CCOCC5)nc34)c(C(F)F)n2)CC1 (some centres unmarked) , thanks.
Reply: < 0.01 µM

* * *

# Test system: OCI-LY10
# assay-overview: CTG Cell Viability Assay - OCI-LY10
# Format: cell-based, human
# test-parameters: Homo sapiens, OCI-Ly10, 96 h, OCI-LY10, 4 days; read-out: CTG Cell Viability Assay - OCI-LY10: Average external-IC50
test-readout: IC50

Completed entries (count: 2):
# molecule, observed-result
data = [
    ("Cn1c(=O)n(C2CCC(=O)NC2=O)c2ccc(CCCN3CCO[C@H](CNC[C@H]4CC[C@H](n5cc(NC(=O)c6coc(-c7ccnc(NCC8CC8)c7)n6)c(C(F)F)n5)CC4)C3)cc21 (stereo partly drawn) [I-35]", "< 50 nM"),
    ("CN(CCCc1cccc2c1n(C)c(=O)n2C1CCC(=O)NC1=O)C(=O)c1ccc(N2CCC(n3cc(NC(=O)c4cnn5ccc(N6C[C@H]7C[C@@H]6CO7)nc45)c(C(F)F)n3)CC2)cc1 (stereo partly drawn) [I-479]", "> 1000 nM"),
]

--- query ---
Task item: // lookup IC50 | system=OCI-LY10 | key= CN(CCCNc1cccc2c1C(=O)N(C1CCC(=O)NC1=O)C2=O)C1CCN(C(=O)[C@H]2CC[C@H](n3cc(NC(=O)c4cnn5ccc(C6C[C@H]7C[C@@H]6CO7)nc45)c(C(F)F)n3)CC2)CC1 (stereo partly drawn) [I-358]
Reply: 50 to 100 nM

* * *

# System: OCI-LY10
# assay-overview: CTG Cell Viability Assay - OCI-LY10
# Type: cell-based, human
# test-parameters: Homo sapiens, OCI-Ly10, 96 h, OCI-LY10, 4 days; read-out: CTG Cell Viability Assay - OCI-LY10: Average external-IC50
Examples of molecules with documented IC50 follow.

# molecule, measurement-target, IC50
rows = [
    ("CN(C[C@@H]1CN(CCCc2ccc3c(c2)n(C)c(=O)n3C2CCC(=O)NC2=O)CCO1)C[C@H]1CC[C@H](n2cc(NC(=O)c3coc(-c4ccnc(NCC5CC5)c4)n3)c(C(C)(C)O)n2)CC1 (stereo partly shown) [I-33]", "OCI-LY10", "> 1000 nM"),
    ("CC[C@@H]1[C@H](F)C(=O)N[C@@H]1COc1ncc(C#CC2CCN(CCOCCNc3cccc4c3C(=O)N(C3CCC(=O)NC3=O)C4=O)CC2)c2cc(C(N)=O)c(OC)cc12 (stereo partly shown) [I-357]", "OCI-LY10", "> 1000 nM"),
    ("C=C(C)c1nn([C@H]2CC[C@H](CN3CCC(OCCCc4cccc5c4n(C)c(=O)n5C4CCC(=O)NC4=O)CC3)CC2)cc1NC(=O)c1cnn2ccc(NCC3CC3)nc12 (stereo partly shown) [I-172]", "OCI-LY10", "> 1000 nM"),
    ("CN(CCCOCCCNc1cccc2c1C(=O)N(C1CCC(=O)NC1=O)C2=O)C[C@H]1CC[C@H](n2cc(NC(=O)c3coc(-c4ccnc(N[C@@H]5CCCC[C@@H]5O)c4)n3)c(C(F)F)n2)CC1 (stereo partly shown) [I-399]", "OCI-LY10", "< 50 nM"),
    ("CC(C)(O)c1cc2nn([C@H]3CC[C@H](CN4CCC(COCCCNc5cccc6c5C(=O)N(C5CCC(=O)NC5=O)C6=O)CC4)CC3)cc2cc1NC(=O)c1cccc(C(F)(F)F)n1 (stereo partly shown) [I-376]", "OCI-LY10", "100 to 500 nM"),
    ("O=C1CCC(N2C(=O)c3cccc(N[C@H]4C[C@H](OC5CCN(C[C@H]6CC[C@H](n7cc(NC(=O)c8cnn9ccc(N%10C[C@H]%11C[C@@H]%10CO%11)nc89)c(C(F)F)n7)CC6)CC5)C4)c3C2=O)C(=O)N1 (stereo partly shown) [I-505]", "OCI-LY10", "> 1000 nM"),
    ("O=C1CCC(n2c3ccccc3c3c(CCCN4CC5(CCN(C(=O)[C@H]6CC[C@H](n7cc(NC(=O)c8cnn9ccc(N%10C[C@H]%11C[C@@H]%10CO%11)nc89)c(C(F)F)n7)CC6)CC5)C4)ccnc32)C(=O)N1 (stereo partly shown) [I-447]", "OCI-LY10", "> 1000 nM"),
    ("Cn1c(=O)n(C2CCC(=O)NC2=O)c2cccc(CCC3CCN(C[C@H]4CC[C@H](n5cc(NC(=O)c6cnn7ccc(N8C[C@H]9C[C@@H]8CO9)nc67)c(C(F)F)n5)CC4)CC3)c21 (stereo partly shown) [I-487]", "OCI-LY10", "> 1000 nM"),
    ("CC(C)[C@@H](CS(=O)(=O)C(C)C)N1C(=O)[C@@](C)(CC(=O)N2CCC(CCN(C)C[C@H]3CC[C@H](n4cc(NC(=O)c5coc(-c6ccnc(NCC7CC7)c6)n5)c(C(F)F)n4)CC3)CC2)C[C@H](c2cccc(Cl)c2)[C@H]1c1ccc(Cl)cc1 [I-147]", "OCI-LY10", "> 1000 nM"),
]

Task item: Need IC50 of Cn1c(=O)n(C2CCC(=O)NC2=O)c2ccc(CN3CCC(CCN4CCC(n5cc(NC(=O)c6coc(-c7ccnc(NCC8CC8)c7)n6)c(C(F)F)n5)CC4)CC3)cc21 (stereo not shown) [I-181] , thanks.
Reply: 100 to 500 nM
